test system: PLC/PRF/5 liver cancer cell strains; assay: Tetrazolium salt reduction method (MTT) on human liver cancer cell strain PLC/PRF/5; format: cell-based; details: Homo sapiens, PLC-PRF-5; MTT, cells cultured 3-5 days; read-out: PLC/PRF/5 IC50
observationType: IC50 (µM)

These solved cases illustrate the format of a correct answer.
{"molecularString": "COc1cc(S(=O)(=O)OC)c2cc1Oc1ccc(cc1)C[C@H]1c3cc(c(OC)cc3CCN1C)Oc1c(OC)c(OC)cc3c1[C@H](C2)N(C)CC3", "observationType": "IC50", "readoutValue": 8.1}
{"molecularString": "COc1cc(Cl)c2cc1Oc1ccc(cc1)C[C@H]1c3cc(c(OC)cc3CCN1C)Oc1c(OC)c(OC)c(Br)c3c1[C@H](C2)N(C)CC3", "observationType": "IC50", "readoutValue": 3.2}
{"molecularString": "COc1cc(N)c2cc1Oc1ccc(cc1)C[C@H]1c3cc(c(OC)cc3CCN1C)Oc1c(OC(=O)c3ccccc3)c(OC)cc3c1[C@H](C2)N(C)CC3", "observationType": "IC50", "readoutValue": 7.8}
{"molecularString": "COc1cc([N+](=O)[O-])c2cc1Oc1ccc(cc1)C[C@H]1c3cc(c(OC)cc3CCN1C)Oc1c(OC)c(OC)c(Cl)c3c1[C@H](C2)N(C)CC3", "observationType": "IC50", "readoutValue": 8.1}

I = COc1cc(NC(=O)CO)c2cc1Oc1ccc(cc1)C[C@H]1c3cc(c(OC)cc3CCN1C)Oc1c(OC)c(OC)cc3c1[C@H](C2)N(C)CC3
II = COc1cc(NS(C)(=O)=O)c2cc1Oc1ccc(cc1)C[C@H]1c3cc(c(OC)cc3CCN1C)Oc1c(OC)c(OC)cc3c1[C@H](C2)N(C)CC3
Q: Could you point out whether the larger IC50 belongs to I or to II ? # respond with the chosen item's label
Result: I

* * *

As shown below, each of these compounds has a reported IC50 value.
tested on: MHCC97L liver cancer cell strains; assay: Tetrazolium salt reduction method (MTT) on human liver cancer cell strain MHCC97L; type: cell-based; details: Homo sapiens, MHCC97L, read-out: MHCC97L IC50 (μM)
# value in µM; strip the unit string

Recorded results for 3 compounds are shown here.
{"compound": "COc1cc2c3cc1Oc1c(OC(C)=O)c(OC)c(Cl)c4c1[C@H](Cc1c(Cl)cc(OC)c(c1Cl)Oc1ccc(cc1)C[C@@H]3N(C)CC2)N(C)CC4", "observationType": "IC50", "readoutValue": 10.4}
{"compound": "COc1cc(NC(C)=O)c2cc1Oc1ccc(cc1)C[C@H]1c3cc(c(OC)cc3CCN1C)Oc1c(OC)c(OC)cc3c1[C@H](C2)N(C)CC3", "observationType": "IC50", "readoutValue": 12.9}
{"compound": "COc1ccc2cc1Oc1ccc(cc1)C[C@H]1c3cc(c(OC)cc3CCN1C)Oc1c(OCc3ccccc3)c(OC)cc3c1[C@H](C2)[N+](C)(Cc1ccccc1)CC3 (some centres unmarked)", "observationType": "IC50", "readoutValue": 12.7}

Q: // IC50 lookup, key: COc1ccc2cc1Oc1ccc(cc1)C[C@H]1c3cc(c(OC)cc3CCN1C)Oc1c(OC(C)=O)c(OC)c(Br)c3c1[C@H](C2)N(C)CC3
Result: 4.1

Q: What value of IC50 has been reported for the following compound? COc1ccc2cc1Oc1ccc(cc1)C[C@H]1c3cc(c(OC)cc3CCN1C)Oc1c(O)c(OC)cc3c1[C@H](C2)N(C)CC3 [Tetrandrine B, reference compound]
Result: 12.8

Q: Looking for the measured IC50 of COc1cc([N+](=O)[O-])c2cc1Oc1ccc(cc1)C[C@H]1c3cc(c(OC)cc3CCN1C)Oc1c(OC)c(OC)cc3c1[C@H](C2)N(C)CC3 , can you help?
Result: 1.9

Q: Given the entry COc1cc(Br)c2cc1Oc1ccc(cc1)C[C@H]1c3cc(c(OC)cc3CCN1C)Oc1c(OC(C)=O)c(OC)c(Br)c3c1[C@H](C2)N(C)CC3 , report its measured IC50.
Result: 8.7

Q: What IC50 value was documented for this compound, C=CC(=O)Nc1cc(OC)c2cc1C[C@H]1c3c(cc(OC)c(OC)c3Oc3cc4c(cc3OC)CCN(C)[C@H]4Cc3ccc(cc3)O2)CCN1C ?
Result: 10.4

These measurements were taken from patent US10189812B2.
